Target: T1, canine NGF tagged at the C-terminus with the Flag tag (canine, UniProt A0A8I3PYI3 122-241)
T1 construct: mature; also called feline NGF (processed form identical)
T1 sequence (A0A8I3PYI3 entry or part of it): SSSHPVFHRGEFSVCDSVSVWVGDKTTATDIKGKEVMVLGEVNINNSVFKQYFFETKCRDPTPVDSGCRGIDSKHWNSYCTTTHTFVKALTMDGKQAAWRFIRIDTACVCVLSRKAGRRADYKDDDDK
Assay: SPR competition; Ab pre-incubated with 50 nM NGF at Ab to NGF ratio 5 to 1, injected over captured feline p75 (competitor)
PROPERTY_MEASURED: % Block (%)
Respond numerically; units are % and should not be typed.

{"columns": ["BINDER", "% Block [%]"],
 "data": [
  ["AHF17602 (antibody, V domains shown) VH: DVQLVESGGDLVKPGGSLRLTCVASGLSLTSSSMVWVRQAPGKGLQWVSTIYSNRGTYYTDSVKGRFTISKDNAENTLYLQMNNLKTEDTATYYCASIYYYDADYLHWYFDFWGQGALVTVSS VL: EIQMTQSPTSLSASVGDRVTITCRASEGIANNLSWYQQTPGKAPKLLIYATSNLHSGVPSRFSGSGSGTDFTLTISSLQPEDFATYYCQQGYKWPLTFGGGTKLEIT", 100],
  ["SC-184_110-Arg (antibody, V domains shown) VH: DVQLVESGGDLVKPGGSLRLTCVASGLSLTSASMSWVRQAPGKGLQWVSTIYSNRGTYYTDSVKGRFTISKDNAENTLYLQMNNLKTEDTATYYCASIYYYEAEYLHWYFDFWGQGALVTVSS VL: EIQMTQSPTSLSASVGDRVTITCRASEGISKNLSWYQQTPGKAPKLLIYATDNLHSGVPSRFSGSGSGTDFTLTISSLQPEDFATYYCQQGWKWPLTFGGGTKLEIT", 100],
  ["felinized clone 101 (antibody, V domains shown) VH: DVQLVESGGDLVKPGGSLRLTCVASGLSLTSSSMSWVRQAPGKGLQWVSTIYSNGGTYYTDSVKGRFTISKDNAENTLYLQMNNLKTEDTATYYCASIYYYDADYLHWYFDFWGQGALVTVSS VL: EIQMTQSPTSLSASVGDRVTITCRASEGISNNLSWYQQTPGKAPKLLIYATSNLHSGVPSRFSGSGSGTDFTLTISSLQPEDFATYYCQQGYKWPLTFGGGTKLEIT", 87]
]}

Quick check: % Block of SC-184_76-Arg (antibody, V domains shown) VH: DVQLVESGGDLVKPGGSLRLTCVASGLSLTSDSMSWVRQAPGKGLQWVSTLWSNRGTYYTDSVKGRFTISKDNAENTLYLQMNNLKTEDTATYYCASIYYYEADYLHWYFDFWGQGALVTVSS VL: EIQMTQSPTSLSASVGDRVTITCRASEGIANNLSWYQQTPGKAPKLLIYATSNLHSGVPSRFSGSGSGTDFTLTISSLQPEDFATYYCQQGFKWPLTFGGGTKLEIT ?
100
